experiment: 28-day repeat dose inhalation toxicokinetics, study 7300227; format: in vivo, Beagle dogs; details: Beagle, dog, lung, inhaled, 106 ug; read-out: Lung 24 hr trough levels
Value Type: concentration at 24 h (ng/g)
Kindly provide the numeric value in ng/g only, without the unit symbol.

Need concentration at 24 h of CO[C@H]1C[C@@H]2CC[C@@H](C)[C@@](O)(O2)C(=O)C(=O)N2CCCC[C@H]2C(=O)O[C@H]([C@H](C)C[C@@H]2CC[C@@H](O)[C@H](OC)C2)CC(=O)[C@H](C)/C=C(\C)[C@@H](O)[C@@H](OC)C(=O)[C@H](C)C[C@H](C)/C=C/C=C/C=C/1C [Rapamycin] , thanks.
61
